System: Yellow Nutsedge
EXPERIMENT_SUMMARY: pre-emergent herbicidal activity, soil incorporation
Format: in vivo
TEST_SETTINGS: Table III, 2 WAT, 11.2 kg/h
TEST_READOUT: pre-emergent herbicidal activity index

CCOCCOC(=O)CNCP(=O)(O)OC(C)C#N (stereo not drawn)
1 (25-49% control)

For every item below, please supply its pre-emergent herbicidal activity index.
1. CCOC(=O)CNCP(=O)(O)OC(C#N)CC (stereo not drawn)
2. CC(C#N)OP(=O)(O)CNCC(=O)OCCCl (stereo not drawn)
3. CC(C#N)OP(=O)(O)CNCC(=O)OCc1ccccc1 (stereo not drawn)

a:
1 (25-49% control)
0 (1-24% control)
0 (1-24% control)

For every item below, please supply its pre-emergent herbicidal activity index.
1. CCOC(=O)CNCP(=O)(O)OC(C)C#N (stereo not drawn)
2. CCCCCOC(=O)CNCP(=O)(O)OC(C)C#N (stereo not drawn) [Example 6, hemihydrate]

a:
1. 1 (25-49% control)
2. 0 (1-24% control)

* * *

Tested on: Panicum Spp
EXPERIMENT_SUMMARY: post-emergent herbicidal activity, greenhouse
Assay type: in vivo
TEST_SETTINGS: Table II, 4 WAT, 5.6 kg/h
Can you tell me post-emergent herbicidal activity index for the items I'm about to list?

Sample answers from the record:
CCOCCOC(=O)CNCP(=O)(O)OC(C)C#N (stereo not drawn)
4 (100% control)
CCCCCOC(=O)CNCP(=O)(O)OC(C)C#N (stereo not drawn) [Example 6, hemihydrate]
4 (100% control)

Here is the next item to consider.
q: Find the measured post-emergent herbicidal activity index of CC(C#N)OP(=O)(O)CNCC(=O)OCc1ccccc1 (stereo not drawn) and report it.
a: 4 (100% control)

* * *

Can you tell me post-emergent herbicidal activity index for the items I'm about to list?
Tested on: Barnyardgrass
EXPERIMENT_SUMMARY: post-emergent herbicidal activity, greenhouse
Format: in vivo
TEST_SETTINGS: Table I, 4 WAT, 56.0 kg/h

Sample answers from the record:
CCOC(=O)CNCP(=O)(OCc1ccco1)OCc1ccco1 [Example 21]
2 (50-74% control)
CCOC(=O)CNCP(=O)(OC(CC(=O)OCC)C(=O)OCC)OC(CC(=O)OCC)C(=O)OCC (centres unmarked) [Example 14]
3 (75-99% control)
CCOC(=O)CNCP(=O)(OCC1COC(C)(C)O1)OCC1COC(C)(C)O1 (centres unmarked) [Example 22]
3 (75-99% control)
CCOC(=O)CNCP(=O)(OC(C)(C)C#N)OC(C)(C)C#N [Example 2]
0 (0-24% control)

q: Find the measured post-emergent herbicidal activity index of CCOC(=O)CNCP(=O)(O)OCC(Cl)(Cl)Cl [Example 26] and report it.
a: 1 (25-49% control)

* * *

Tested on: Downy Brome
EXPERIMENT_SUMMARY: post-emergent herbicidal activity, greenhouse
Format: in vivo
TEST_SETTINGS: Table I, 2 WAT, 5.6 kg/h
Can you tell me post-emergent herbicidal activity index for the items I'm about to list?

Sample answers from the record:
CCOC(=O)CNCP(=O)(OCC(=O)OCC)OCC(=O)OCC
0 (0-24% control)
CCOC(=O)CNCP(=O)(OCCCl)OCCCl
0 (0-24% control)
CCOC(=O)CNCP(=O)(OC1CCCSC1)OC1CCCSC1 (centres unmarked)
0 (0-24% control)

For every item below, please supply its post-emergent herbicidal activity index.
1. CCOC(=O)CNCP(=O)(OC(C)CC(=O)OCC)OC(C)CC(=O)OCC (centres unmarked)
2. CCOC(=O)CNCP(=O)(OC(CC(=O)OCC)C(=O)OCC)OC(CC(=O)OCC)C(=O)OCC (centres unmarked)
3. CCOC(=O)CNCP(=O)(OC(C)(C)C#N)OC(C)(C)C#N
4. CCOC(=O)CNCP(=O)(OCC1CCCCO1)OCC1CCCCO1 (centres unmarked)
5. N#CCCOP(=O)(CNCC#N)OCCC#N

a:
0 (0-24% control)
0 (0-24% control)
0 (0-24% control)
0 (0-24% control)
0 (0-24% control)

* * *

System: Yellow Nutsedge
EXPERIMENT_SUMMARY: post-emergent herbicidal activity, greenhouse
Type: in vivo
TEST_SETTINGS: Table I, 4 WAT, 5.6 kg/h
TEST_READOUT: post-emergent herbicidal activity index

CCOC(=O)CNCP(=O)(OCCN1CCCC1)OCCN1CCCC1 [Example 24]
2 (50-74% control)
CCOC(=O)CNCP(=O)(O)OC(C)CC(=O)OCC (stereo not shown) [Example 25]
0 (0-24% control)
CC(C#N)OP(=O)(CNCC#N)OC(C)C#N (stereo not shown) [Example 12]
3 (75-99% control)
CCOC(=O)CNCP(=O)(O)OC(C)C(=O)OC (stereo not shown) [Example 28]
1 (25-49% control)
CCOC(=O)CNCP(=O)(OC(C)C(=O)OC)OC(C)C(=O)OC (stereo not shown) [Example 18]
1 (25-49% control)
CC(C#N)OP(=O)(O)CNCC(=O)OCc1ccccc1 (stereo not shown) [Example 10]
1 (25-49% control)
CCOC(=O)CNCP(=O)(OC(C)C#N)OC(C)C#N (stereo not shown) [Example 1]
2 (50-74% control)
CCOCCOC(=O)CNCP(=O)(O)OC(C)C#N (stereo not shown) [Example 9]
1 (25-49% control)
CCOC(=O)CNCP(=O)(O)OC(C)C#N (stereo not shown) [Example 5]
3 (75-99% control)

Here is the next item to consider.
q: Find the measured post-emergent herbicidal activity index of CCOC(=O)CNCP(=O)(O)OCC(Cl)(Cl)Cl [Example 27] and report it.
a: 0 (0-24% control)

* * *

System: Barnyardgrass
EXPERIMENT_SUMMARY: post-emergent herbicidal activity, greenhouse
Format: in vivo
TEST_SETTINGS: Table II, 4 WAT, 5.6 kg/h
Can you tell me post-emergent herbicidal activity index for the items I'm about to list?

For every item below, please supply its post-emergent herbicidal activity index.
1. CCOC(=O)CNCP(=O)(OC(C)C#N)OC(C)C#N (stereo not shown) [Example 1]
2. CCOC(=O)CNCP(=O)(OC(C)CC(=O)OCC)OC(C)CC(=O)OCC (stereo not shown) [Example 15]

a:
1: 4 (100% control); 2: 0 (0-24% control)

For every item below, please supply its post-emergent herbicidal activity index.
1. CC(C#N)OP(=O)(O)CNCC(=O)OCc1ccccc1 (stereo not shown) [Example 10]
2. CCCCCOC(=O)CNCP(=O)(O)OC(C)C#N (stereo not shown) [Example 6, hemihydrate]
3. CCOC(=O)CNCP(=O)(O)OCC(Cl)(Cl)Cl [Example 27]
4. CC(C#N)OP(=O)(O)CNCC(=O)OCCCl (stereo not shown) [Example 7]
5. CCOC(=O)CNCP(=O)(O)OC(C#N)CC (stereo not shown) [Example 8]
6. CC(C#N)OP(=O)(CNCC#N)OC(C)C#N (stereo not shown) [Example 12]
7. CCOC(=O)CNCP(=O)(O)OC(C)C(=O)OC (stereo not shown) [Example 28]
8. CCOC(=O)CNCP(=O)(OCC1COC(C)(C)O1)OCC1COC(C)(C)O1 (stereo not shown) [Example 22]

a:
["3 (75-99% control)", "3 (75-99% control)", "3 (75-99% control)", "3 (75-99% control)", "4 (100% control)", "3 (75-99% control)", "3 (75-99% control)", "2 (50-74% control)"]

For every item below, please supply its post-emergent herbicidal activity index.
1. CCOC(=O)CNCP(=O)(O)OC(C)C#N (stereo not shown) [Example 5]
2. CCOC(=O)CNCP(=O)(OCCN1CCCC1)OCCN1CCCC1 [Example 24]

a:
4 (100% control)
3 (75-99% control)

q: Find the measured post-emergent herbicidal activity index of CCOCCOC(=O)CNCP(=O)(O)OC(C)C#N (stereo not shown) [Example 9] and report it.
a: 3 (75-99% control)

* * *

Can you tell me post-emergent herbicidal activity index for the items I'm about to list?
Tested on: Lambsquarters
EXPERIMENT_SUMMARY: post-emergent herbicidal activity, greenhouse
Format: in vivo
TEST_SETTINGS: Table II, 4 WAT, 0.28 kg/h
Excerpt: A good grade of top soil is placed in aluminum pans having holes in the bottom and compacted to a depth of 0.95 to 1.27 cm. from the top of the pan. […] The pans are returned to the greenhouse and watered as before and the injury to the plants as compared to the control is observed at approximately two and four weeks as indicated in the tables under WAT and the results recorded. […]

CC(C#N)OP(=O)(O)CNCC(=O)OCCCl (stereo not shown)
4 (100% control)
CCOC(=O)CNCP(=O)(O)OC(C)C#N (stereo not shown)
2 (50-74% control)
CCOC(=O)CNCP(=O)(OC(C)C#N)OC(C)C#N (stereo not shown)
0 (0-24% control)
CCOC(=O)CNCP(=O)(O)OCC(Cl)(Cl)Cl
1 (25-49% control)
CCCCCOC(=O)CNCP(=O)(O)OC(C)C#N (stereo not shown) [Example 6, hemihydrate]
1 (25-49% control)

For every item below, please supply its post-emergent herbicidal activity index.
1. CCOCCOC(=O)CNCP(=O)(O)OC(C)C#N (stereo not shown)
2. CC(C#N)OP(=O)(O)CNCC(=O)OCc1ccccc1 (stereo not shown)

a:
4 (100% control)
2 (50-74% control)

Cited source: patent US4442044A
